Organism: Mus musculus
method description: Cytotoxicity in mouse GLUTag cells assessed as effect on plasma membrane integrity through LDH release up to 1 uM after 20 mins in presence of glucose by nonradioactive CytoTox96 assay
Format: toxicity, cell-based
Where a SMILES comes first, the peptide text is derived from it.
readout kind: Activity

- compound: "CC[C@H](C)[C@H](NC(=O)[C@H](CS)NC(=O)[C@@H](NC(=O)[C@@H](N)CCCNC(=N)N)[C@@H](C)O)C(=O)N1CCC[C@H]1C(=O)N[C@H](C(=O)N1CCC[C@H]1C(=O)N[C@@H](CC(C)C)C(=O)N[C@H](C(=O)N[C@@H](CCSC)C(=O)N[C@@H](CS)C(=O)O)C(C)C)[C@@H](C)CC (H-RTCIPIPLVMC-OH)"
  result: "Non-Toxic"
- compound: "CC[C@H](C)[C@H](NC(=O)[C@H](CS)NC(=O)[C@@H](NC(=O)[C@@H](N)CCCNC(=N)N)[C@@H](C)O)C(=O)N1CCC[C@H]1C(=O)N[C@H](C(=O)N1CCC[C@H]1C(=O)N1CCC[C@H]1C(=O)N[C@H](C(=O)N[C@@H](CS)C(=O)N[C@@H](Cc1ccccc1)C(=O)O)C(C)C)[C@@H](C)CC (H-RTCIPIPPVCF-OH)"
  result: "Non-Toxic"
- compound: "CC[C@H](C)[C@H](NC(=O)[C@@H](N)CCCNC(=N)N)C(=O)N[C@@H](CS)C(=O)N[C@H](C(=O)N1CCC[C@H]1C(=O)N[C@H](C(=O)N1CCC[C@H]1C(=O)N[C@@H](Cc1ccccc1)C(=O)N1CCC[C@H]1C(=O)N[C@@H](CCSC)C(=O)N[C@@H](CS)C(=O)N[C@@H](Cc1ccc(O)cc1)C(=O)O)[C@@H](C)CC)[C@@H](C)O (H-RICTPIPFPMCY-OH)"
  result: "Non-Toxic"
- compound: "CC[C@H](C)[C@H](NC(=O)[C@@H](N)CCCNC(=N)N)C(=O)N[C@@H](CS)C(=O)N[C@H](C(=O)N[C@@H](C)C(=O)N[C@H](C(=O)N1CCC[C@H]1C(=O)N[C@@H](CC(C)C)C(=O)N1CCC[C@H]1C(=O)N[C@@H](CCSC)C(=O)N[C@@H](CS)C(=O)N[C@@H](CC(C)C)C(=O)O)[C@@H](C)CC)[C@@H](C)O (H-RICTAIPLPMCL-OH)"
  result: "Non-Toxic"

---

Species on record: Rattus norvegicus
method description: Cytotoxicity in rat BRIN-BD11 cells assessed as effect on plasma membrane integrity through LDH release up to 1 uM after 20 mins in presence of glucose by nonradioactive CytoTox96 assay
Type: toxicity, cell-based
experimental context: brin-bd11, 20 min
Where a SMILES comes first, the peptide text is derived from it.
readout kind: Activity

- molecule: "CC[C@H](C)[C@H](NC(=O)[C@H](CS)NC(=O)[C@@H](NC(=O)[C@@H](N)CCCNC(=N)N)[C@@H](C)O)C(=O)N1CCC[C@H]1C(=O)N[C@H](C(=O)N1CCC[C@H]1C(=O)N1CCC[C@H]1C(=O)N[C@H](C(=O)N[C@@H](CS)C(=O)N[C@@H](Cc1ccccc1)C(=O)O)C(C)C)[C@@H](C)CC (H-RTCIPIPPVCF-OH)"
  readout kind: "Activity"
  result: "Non-Toxic"
- molecule: "CC[C@H](C)[C@H](NC(=O)[C@@H](N)CCCNC(=N)N)C(=O)N[C@@H](CS)C(=O)N[C@H](C(=O)N[C@@H](C)C(=O)N[C@H](C(=O)N1CCC[C@H]1C(=O)N[C@@H](CC(C)C)C(=O)N1CCC[C@H]1C(=O)N[C@@H](CCSC)C(=O)N[C@@H](CS)C(=O)N[C@@H](CC(C)C)C(=O)O)[C@@H](C)CC)[C@@H](C)O (H-RICTAIPLPMCL-OH)"
  readout kind: "Activity"
  result: "Non-Toxic"
- molecule: "CC[C@H](C)[C@H](NC(=O)[C@H](CS)NC(=O)[C@@H](NC(=O)[C@@H](N)CCCNC(=N)N)[C@@H](C)O)C(=O)N1CCC[C@H]1C(=O)N[C@H](C(=O)N1CCC[C@H]1C(=O)N[C@@H](CC(C)C)C(=O)N[C@H](C(=O)N[C@@H](CCSC)C(=O)N[C@@H](CS)C(=O)O)C(C)C)[C@@H](C)CC (H-RTCIPIPLVMC-OH)"
  readout kind: "Activity"
  result: "Non-Toxic"

---

System: BRIN-BD11
method description: Inhibition of Katp in rat BRIN-BD11 cells assessed as insulin release at 1 uM after 20 mins in presence of 5.6 mM glucose by radioimmunoassay relative to basal level
Type: cell-based
Design: scale not given: the % may be the effect or the level left
Where a SMILES comes first, the peptide text is derived from it.
readout kind: Activity (%)
Entry rule: numbers only, all in %.

- compound: "CC[C@H](C)[C@H](NC(=O)[C@@H](N)CCCNC(=N)N)C(=O)N[C@@H](CS)C(=O)N[C@H](C(=O)N[C@@H](C)C(=O)N[C@H](C(=O)N1CCC[C@H]1C(=O)N[C@@H](CC(C)C)C(=O)N1CCC[C@H]1C(=O)N[C@@H](CCSC)C(=O)N[C@@H](CS)C(=O)N[C@@H](CC(C)C)C(=O)O)[C@@H](C)CC)[C@@H](C)O (H-RICTAIPLPMCL-OH)"
  measured on: "BRIN-BD11"
  readout kind: "Activity"
  unit annotation: "%"
  result number: 233
- compound: "CC[C@H](C)[C@H](NC(=O)[C@@H](N)CCCNC(=N)N)C(=O)N[C@@H](CS)C(=O)N[C@H](C(=O)N1CCC[C@H]1C(=O)N[C@H](C(=O)N1CCC[C@H]1C(=O)N[C@@H](Cc1ccccc1)C(=O)N1CCC[C@H]1C(=O)N[C@@H](CCSC)C(=O)N[C@@H](CS)C(=O)N[C@@H](Cc1ccc(O)cc1)C(=O)O)[C@@H](C)CC)[C@@H](C)O (H-RICTPIPFPMCY-OH)"
  measured on: "BRIN-BD11"
  readout kind: "Activity"
  unit annotation: "%"
  result number: 395
- compound: "CC[C@H](C)[C@H](NC(=O)[C@H](CS)NC(=O)[C@@H](NC(=O)[C@@H](N)CCCNC(=N)N)[C@@H](C)O)C(=O)N1CCC[C@H]1C(=O)N[C@H](C(=O)N1CCC[C@H]1C(=O)N[C@@H](CC(C)C)C(=O)N[C@H](C(=O)N[C@@H](CCSC)C(=O)N[C@@H](CS)C(=O)O)C(C)C)[C@@H](C)CC (H-RTCIPIPLVMC-OH)"
  measured on: "BRIN-BD11"
  readout kind: "Activity"
  unit annotation: "%"
  result number: 201

According to the records, this compound CC[C@H](C)[C@H](NC(=O)[C@H](CS)NC(=O)[C@@H](NC(=O)[C@@H](N)CCCNC(=N)N)[C@@H](C)O)C(=O)N1CCC[C@H]1C(=O)N[C@H](C(=O)N1CCC[C@H]1C(=O)N1CCC[C@H]1C(=O)N[C@H](C(=O)N[C@@H](CS)C(=O)N[C@@H](Cc1ccccc1)C(=O)O)C(C)C)[C@@H](C)CC (H-RTCIPIPPVCF-OH) displays Activity of 163
